Subject of test: D(4) dopamine receptor (Homo sapiens) (UniProt P21917)
Sequence (P21917 whole entry): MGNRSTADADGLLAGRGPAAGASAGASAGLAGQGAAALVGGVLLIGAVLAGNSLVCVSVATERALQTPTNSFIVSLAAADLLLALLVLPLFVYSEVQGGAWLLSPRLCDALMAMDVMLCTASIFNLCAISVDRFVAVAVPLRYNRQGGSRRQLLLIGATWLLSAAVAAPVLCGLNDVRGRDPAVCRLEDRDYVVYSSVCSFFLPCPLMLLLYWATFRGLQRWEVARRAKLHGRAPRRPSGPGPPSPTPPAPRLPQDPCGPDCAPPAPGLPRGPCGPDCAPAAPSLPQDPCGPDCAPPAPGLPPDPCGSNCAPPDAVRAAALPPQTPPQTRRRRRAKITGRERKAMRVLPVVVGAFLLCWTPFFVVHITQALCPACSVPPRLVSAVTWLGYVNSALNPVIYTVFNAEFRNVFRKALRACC
Method description: Displacement of [3H]N-methylspiperone from human D4 receptor expressed in HEK293 cell membrane at 10 uM by competitive inhibition based analysis
Format: cell membranes
Outcome: fulfilled for inhibition of at least 20%; not fulfilled for anything lower.

Below are worked cases with known answers.
| Structure smiles | Discrete label |
| --- | --- |
| Cc1cc(CO[C@H]2CCCN(c3ccc(Cl)cc3)C2)ccc1F | not fulfilled |
| Cc1cccc(CO[C@H]2CCCN(Cc3cn4ccccc4n3)C2)n1 | fulfilled |
| Fc1cccc(CO[C@H]2CCCN(c3ccc(Cl)cc3)C2)c1 | not fulfilled |
| Cc1ccccc1CN1CCC[C@H](OCc2cccc(F)c2)C1 | fulfilled |
| Cc1cccc(CO[C@H]2CCCN(Cc3ncc4ccccn34)C2)n1 | not fulfilled |
| Cc1ccccc1CO[C@H]1CCCN(Cc2ccc(Cl)cc2F)C1 | not fulfilled |

Is inhibition for Cc1ccc(CO[C@H]2CCCN(Cc3cccc(F)c3)C2)cc1 at or above 20%?
fulfilled

* * *

Subject of test: D(4) dopamine receptor (Homo sapiens)
Sequence (P21917 whole entry): as the sequence (P21917 whole entry) above
# note: boundary value 0.4 µM maps to class 0; Ki below it maps to class 1

Below are worked cases with known answers.
| Structure smiles | Discrete label |
| --- | --- |
| Fc1ccc(CO[C@H]2CCCN(Cc3ncn4ccccc34)C2)cc1F | class 0 |
| Cn1cnc2cc(CN3CCC(OCc4cccc(C(F)(F)F)c4)CC3)ccc21 | class 0 |
| COc1ccc(CN2CCC[C@H](OCc3cccc(C)n3)C2)cc1F | class 0 |
| Fc1cc(COC2CCN(Cc3ccc4[nH]cnc4c3)CC2)ccc1Cl | class 0 |
| COc1ccc(CN2CCC[C@H](OCc3ccc(F)c(C)c3)C2)cc1F | class 1 |
| COc1ccc(CN2CCC[C@H](OCc3cccc(F)c3)C2)cc1F | class 1 |
| Fc1cccc(CO[C@H]2CCCN(Cc3cn4ccccc4n3)C2)c1 | class 0 |
| FC(F)(F)c1cccc(COC2CCN(Cc3ccc4[nH]cnc4c3)CC2)c1 | class 0 |
| Fc1ccc(CO[C@H]2CCCN(Cc3cn4ccccc4n3)C2)cc1F | class 1 |
| Cc1ccc(CO[C@H]2CCCN(Cc3ccc(Cl)c(Cl)c3)C2)cc1 | class 0 |

Item Fc1cccc(COC2CCN(Cc3ncn4ccccc34)CC2)c1 : Ki beneath 0.4 µM, strictly?
class 1

Item Fc1cccc(COC2CCN(Cc3cn4ccccc4n3)CC2)c1 : Ki beneath 0.4 µM, strictly?
class 1

Item Fc1ccc(COC2CCN(Cc3ccc4[nH]ncc4c3)CC2)cc1F : Ki beneath 0.4 µM, strictly?
class 0

Item COc1ccc(CN2CCC[C@H](OCc3ccccc3C)C2)cc1F : Ki beneath 0.4 µM, strictly?
class 1

Item Fc1cccc(CO[C@H]2CCCN(Cc3ncn4ccccc34)C2)c1 : Ki beneath 0.4 µM, strictly?
class 0

Item FC(F)(F)c1cccc(COC2CCN(Cc3cn4ccccc4n3)CC2)c1 : Ki beneath 0.4 µM, strictly?
class 1

Item Fc1ccc(COC2CCN(Cc3cn4ccccc4n3)CC2)cc1F : Ki beneath 0.4 µM, strictly?
class 1

* * *

Method description: Drug uptake in rat brain at 0.25 mg/kg, iv measured on day 2 at 0.25 hrs post-dose
Assay type: ADME, organism-based
Condition label: time 2 day, read-out: Drug uptake
Readout name: concentration at 48 h (ng/g)
Report only the number, with the unit ng/g understood.

Known results for compounds:
| Structure smiles | Readout name | Assay value |
| --- | --- | --- |
| Fc1cc(COC2CCN(Cc3cn4ccccc4n3)CC2)ccc1Cl | concentration at 48 h | 453 |
| Fc1ccc(COC2CCN(Cc3cc4ccc(Cl)cc4[nH]3)CC2)cc1F | concentration at 48 h | 562 |
| Cc1c(Cl)cccc1NC(=O)CN1CCC(OCc2ccc(F)c(F)c2)CC1 | concentration at 48 h | 134 |
| Cn1ncc2cc(CN3CCC(OCc4ccc(F)c(F)c4)CC3)ccc21 | concentration at 48 h | 355 |

Which concentration at 48 h is reported for this compound? Fc1ccc(COC2CCN(Cc3cn4ccccc4n3)CC2)cc1F
232

Which concentration at 48 h is reported for this compound? Fc1ccc(COC2CCN(Cc3ccc4[nH]cnc4c3)CC2)cc1F
112

Which concentration at 48 h is reported for this compound? Cn1cnc2cc(CN3CCC(OCc4cccc(C(F)(F)F)c4)CC3)ccc21
214

Which concentration at 48 h is reported for this compound? Fc1cc(COC2CCN(Cc3ccc4[nH]cnc4c3)CC2)ccc1Cl
139

* * *

Method description: Protein binding in mouse plasma assessed as unbound fraction
Assay type: ADME, cell-free
Outcome: true (1) for Fu of at least 20%; false (0) for anything lower.

Below are worked cases with known answers.
| Structure smiles | Discrete label |
| --- | --- |
| FC(F)(F)c1cccc(COC2CCN(Cc3cc4ccc(Cl)cc4[nH]3)CC2)c1 | false (0) |
| FC(F)(F)c1cccc(COC2CCN(Cc3ccc4[nH]cnc4c3)CC2)c1 | false (0) |
| Fc1cc(COC2CCN(Cc3ccc4[nH]cnc4c3)CC2)ccc1Cl | false (0) |
| Fc1ccc(CO[C@H]2CCCN(Cc3ncn4ccccc34)C2)cc1F | false (0) |
| Fc1cccc(COC2CCN(Cc3cn4ccccc4n3)CC2)c1 | true (1) |

Is Fu for COc1ccc(CN2CCO[C@H](COc3ccccc3)C2)cc1F at or above 20%?
false (0)

Is Fu for Fc1cc(COC2CCN(Cc3ncc4ccccn34)CC2)ccc1Cl at or above 20%?
false (0)

Is Fu for Fc1cc(COC2CCN(Cc3cn4ccccc4n3)CC2)ccc1Cl at or above 20%?
true (1)

Is Fu for Cc1c(Cl)cccc1NC(=O)CN1CCC(OCc2ccc(F)c(F)c2)CC1 at or above 20%?
false (0)

Is Fu for COc1ccc(CN2CCC[C@H](OCc3ccc(F)c(F)c3)C2)cc1F at or above 20%?
false (0)

Is Fu for Cn1ncc2cc(CN3CCC(OCc4ccc(Cl)c(F)c4)CC3)ccc21 at or above 20%?
false (0)

* * *

Entries and their Kp at 48 h values follow.
Method description: Ratio of drug level in rat brain to plasma at 0.25 mg/kg, iv measured on day 2 at 0.25 hrs post-dose
Assay type: ADME, organism-based
Condition label: time 2 day, read-out: BPR
Please respond with just the number, no unit label.

Known results for compounds:
| Structure smiles | Assay value |
| --- | --- |
| Cc1c(Cl)cccc1NC(=O)CN1CCC(OCc2ccc(F)c(F)c2)CC1 | 2.9 |
| Fc1ccc(COC2CCN(Cc3cc4ccc(Cl)cc4[nH]3)CC2)cc1F | 28.9 |
| Cn1ncc2cc(CN3CCC(OCc4ccc(F)c(F)c4)CC3)ccc21 | 11.6 |
| Fc1cc(COC2CCN(Cc3ccc4[nH]cnc4c3)CC2)ccc1Cl | 9.9 |
| Fc1cc(COC2CCN(Cc3cn4ccccc4n3)CC2)ccc1Cl | 15.5 |

Which Kp at 48 h is reported for this compound? Fc1ccc(COC2CCN(Cc3cn4ccccc4n3)CC2)cc1F
6.6

Which Kp at 48 h is reported for this compound? Cn1cnc2cc(CN3CCC(OCc4cccc(C(F)(F)F)c4)CC3)ccc21
7.2

Which Kp at 48 h is reported for this compound? Fc1ccc(COC2CCN(Cc3ccc4[nH]cnc4c3)CC2)cc1F
16.1

* * *

Entries and their inhibition values follow.
Subject of test: UniProtKB P14416
Sequence (P14416 whole entry): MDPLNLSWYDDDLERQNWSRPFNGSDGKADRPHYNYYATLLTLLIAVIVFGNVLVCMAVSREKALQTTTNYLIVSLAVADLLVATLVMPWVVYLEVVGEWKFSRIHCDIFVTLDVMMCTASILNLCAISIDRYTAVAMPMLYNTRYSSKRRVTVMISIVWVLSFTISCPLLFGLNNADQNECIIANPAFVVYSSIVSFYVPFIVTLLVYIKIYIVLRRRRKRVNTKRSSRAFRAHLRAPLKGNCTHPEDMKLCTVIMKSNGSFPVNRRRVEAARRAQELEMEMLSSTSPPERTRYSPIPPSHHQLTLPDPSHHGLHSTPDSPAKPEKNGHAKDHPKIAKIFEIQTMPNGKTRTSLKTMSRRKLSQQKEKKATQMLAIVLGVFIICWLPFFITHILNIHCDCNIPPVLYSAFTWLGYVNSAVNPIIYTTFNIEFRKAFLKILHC
Method description: Displacement of [3H]N-methylspiperone from human D2 receptor expressed in HEK293 cell membrane at 10 uM by competitive inhibition based analysis
Assay type: cell membranes

Known results for compounds:
| Structure smiles | Readout name | Assay value |
| --- | --- | --- |
| FC(F)(F)c1cccc(COC2CCN(Cc3ccc4[nH]cnc4c3)CC2)c1 | inhibition | < 50% |
| Fc1cc(COC2CCN(Cc3cc4ccc(Cl)cc4[nH]3)CC2)ccc1Cl | inhibition | < 50% |
| COc1ccc(CN2CCC[C@H](OCc3ccccc3C)C2)cc1F | inhibition | < 50% |
| Fc1cccc(CO[C@H]2CCCN(Cc3ccc(Cl)cc3F)C2)c1 | inhibition | < 50% |

Which inhibition is reported for this compound? Fc1cccc(CO[C@H]2CCCN(c3ccc(Cl)cc3)C2)c1
< 50%

Which inhibition is reported for this compound? FC(F)(F)c1cccc(COC2CCN(Cc3cn4ccccc4n3)CC2)c1
< 50%

Which inhibition is reported for this compound? Fc1cc(COC2CCN(Cc3ccc4[nH]cnc4c3)CC2)ccc1Cl
< 50%

Which inhibition is reported for this compound? Cn1ncc2cc(CN3CCC(OCc4ccc(Cl)c(F)c4)CC3)ccc21
< 50%

Which inhibition is reported for this compound? Cc1cc(CO[C@H]2CCCN(c3ccc(Cl)cc3)C2)ccc1F
< 50%

Which inhibition is reported for this compound? Fc1ccc(COC2CCN(Cc3ncc4ccccn34)CC2)cc1F
< 50%

Which inhibition is reported for this compound? Fc1cccc(CO[C@H]2CCCN(Cc3cn4ccccc4n3)C2)c1
< 50%

Which inhibition is reported for this compound? Cc1ccc(CN2CCC[C@H](OCc3ccc(F)c(C)c3)C2)cc1
< 50%

Which inhibition is reported for this compound? Cc1nc(CN2CCC(OCc3cccc(C(F)(F)F)c3)CC2)c2ccccn12
< 50%

Which inhibition is reported for this compound? Cc1cccc(CO[C@H]2CCCN(Cc3cn4ccccc4n3)C2)n1
< 50%

Which inhibition is reported for this compound? COc1ccc(CN2CCC[C@H](OCc3cccc(C)n3)C2)cc1F
< 50%

Which inhibition is reported for this compound? Cc1ccccc1CO[C@H]1CCCN(Cc2ccc(Cl)cc2F)C1
< 50%

Which inhibition is reported for this compound? Cc1ccc(CO[C@H]2CCCN(Cc3cccc(F)c3)C2)cc1
< 50%
